# TESTED SYSTEM: Sodium-dependent serotonin transporter (Homo sapiens, UniProt P31645)
# Sequence (P31645 whole entry): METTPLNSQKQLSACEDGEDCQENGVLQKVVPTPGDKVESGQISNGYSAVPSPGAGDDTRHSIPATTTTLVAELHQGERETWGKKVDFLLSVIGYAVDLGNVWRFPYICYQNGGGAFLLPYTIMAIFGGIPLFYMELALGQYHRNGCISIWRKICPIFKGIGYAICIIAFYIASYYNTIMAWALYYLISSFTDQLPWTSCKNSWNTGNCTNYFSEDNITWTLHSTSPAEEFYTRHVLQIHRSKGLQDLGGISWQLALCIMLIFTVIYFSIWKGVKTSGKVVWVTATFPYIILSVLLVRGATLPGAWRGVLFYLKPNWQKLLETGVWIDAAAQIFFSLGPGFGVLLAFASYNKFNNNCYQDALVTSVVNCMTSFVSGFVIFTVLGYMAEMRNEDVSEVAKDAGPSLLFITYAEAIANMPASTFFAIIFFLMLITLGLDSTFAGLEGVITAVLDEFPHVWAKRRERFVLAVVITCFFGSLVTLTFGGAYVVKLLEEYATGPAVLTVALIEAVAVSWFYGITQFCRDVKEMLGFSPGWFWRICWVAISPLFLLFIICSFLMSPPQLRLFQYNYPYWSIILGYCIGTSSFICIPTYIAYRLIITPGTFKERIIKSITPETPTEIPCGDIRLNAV
pKi: −log10 of the molar value.
MEASURE NAME: pKi

Q: Fill in the recorded pKi for this molecule, with Sodium-dependent serotonin transporter (Homo sapiens, UniProt P31645) as test system: C[C@H](N)Cn1ncc2ccc(O)cc21
A: < 5.00

---

# TESTED SYSTEM: UniProt:P14842
# Sequence (P14842 whole entry): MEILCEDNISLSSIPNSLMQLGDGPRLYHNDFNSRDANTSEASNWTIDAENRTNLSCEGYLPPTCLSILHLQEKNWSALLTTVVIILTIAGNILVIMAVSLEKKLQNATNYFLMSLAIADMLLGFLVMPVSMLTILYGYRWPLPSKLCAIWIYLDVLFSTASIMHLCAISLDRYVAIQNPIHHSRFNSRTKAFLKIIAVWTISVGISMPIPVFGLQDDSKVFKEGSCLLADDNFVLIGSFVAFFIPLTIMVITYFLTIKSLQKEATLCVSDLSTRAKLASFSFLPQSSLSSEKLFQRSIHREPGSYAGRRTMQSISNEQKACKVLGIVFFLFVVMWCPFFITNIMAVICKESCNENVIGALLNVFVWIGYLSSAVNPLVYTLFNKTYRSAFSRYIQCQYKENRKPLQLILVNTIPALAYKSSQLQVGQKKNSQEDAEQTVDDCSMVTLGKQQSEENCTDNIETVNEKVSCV
# ASSAY INFO: Activity against 5HT2A mediated intracellular calcium mobilization by FLIPR in rat vascular smooth muscle cells
# Assay type: functional, cell-based
Quick reference for Emax among some compounds
State just the number; it will be interpreted in %.

>  <COMPOUND>
Cc1c(O)ccc2cnn(C[C@H](C)N)c12

>  <Emax [%]>
89

$$$$

Q: Reported Emax, compound COc1ccc2cnn(C[C@H](C)N)c2c1 : ____
A: 90

Q: Reported Emax, compound C[C@H](N)Cn1ncc2ccc(O)cc21 : ____
A: 81

Q: Reported Emax, compound NCCn1ncc2ccc(O)cc21 : ____
A: 75

Q: Reported Emax, compound CC(N)Cc1c[nH]c2ccc(O)cc12 (stereo not drawn) : ____
A: 96

src = ChEMBL document CHEMBL1148572
